Recorded pKd by entry
Target: T1, human IGF2^1-67 (mature insulin-like growth factor 2) (human, UniProt P01344 25-91, biotinylated (site not stated) where immobilised on the chip (Tables 1-4))
T1 construct: mature; also called mature IGF2; biotinylated IGF2
T1 sequence (P01344 25-91): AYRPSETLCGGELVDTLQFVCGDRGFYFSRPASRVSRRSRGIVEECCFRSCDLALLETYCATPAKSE
Test: SPR kinetic, biotin-IGF2 on chip, pH 7.4
Convention used: pKd is expressed as -log10 of the molar concentration.

INSERT INTO measurements (binder, result_number) VALUES
  ('domain 11^AB5 T1633A (receptor, See m5; HI loop mutant) MKSNEHDDCQVTNPSTGHLFDLSSLSGRAGFTAAYAKGWGVYMSICGENENCPPGVGACFGQTRISVGKANKRLRYVDQVLQLVYKDGSPCPSKSGLSYKSVISFVCRPEAGPTNRPMLISLDKQACTLFFSWHTPLACEQATECSV', 7.58);

// domain 11^AB5 S1602H (receptor, See m5) MKSNEHDDCQVTNPSTGHLFDLSSLSGRAGFTAAYAKGWGVYMSICGENENCPPGVGACFGQTRISVGKANKRLRYVDQVLQLVYKDGSPCPSKHGLSYKSVISFVCRPEAGPTNRPMLISLDKQTCTLFFSWHTPLACEQATECSV : pKd value = 8.50

// IGF2R domain 11^WT (receptor, Soluble His6-tagged domain 11 from P. pastoris and/or E. coli; also called wild-type domain 11) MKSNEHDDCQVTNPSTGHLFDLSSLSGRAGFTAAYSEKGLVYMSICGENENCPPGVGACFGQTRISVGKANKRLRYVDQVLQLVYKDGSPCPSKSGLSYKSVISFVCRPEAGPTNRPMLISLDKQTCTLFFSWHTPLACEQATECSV : pKd value = 7.34
